- measurement conditions: human gut metagenome, 24 h, 2 µM; note: call rule not given here
assay metric: Bacterial Biotransformation

Solved entries:
> print(dat)
                                   molecule       experimental.result
1  Cc1ccc(-c2nc3ccc(C)cn3c2CC(=O)N(C)C)cc1 [ZOLPIDEM]  Compound NOT metabolized
2  CC(O)(CS(=O)(=O)c1ccc(F)cc1)C(=O)Nc1ccc(C#N)c(C(F)(F)F)c1 (stereo not drawn) [BICALUTAMIDE]  Compound NOT metabolized
3  CNCCC(Oc1ccc(C(F)(F)F)cc1)c1ccccc1 (stereo not drawn) [FLUOXETINE]  Compound NOT metabolized
4  CC(=O)O[C@]1(C(C)=O)CC[C@H]2[C@@H]3C=C(Cl)C4=CC(=O)[C@@H]5C[C@@H]5[C@]4(C)[C@H]3CC[C@@]21C [CYPROTERONE ACETATE]      Compound metabolized

## Input I am curious: what Bacterial Biotransformation value has been reported for Cc1cn([C@H]2C[C@H](N=[N+]=[N-])[C@@H](CO)O2)c(=O)[nH]c1=O [ZIDOVUDINE] ?
## Output Compound NOT metabolized

## Input I am curious: what Bacterial Biotransformation value has been reported for OCCN1CCN(CCCN2c3ccccc3Sc3ccc(C(F)(F)F)cc32)CC1 [FLUPHENAZINE] ?
## Output Compound metabolized

## Input I am curious: what Bacterial Biotransformation value has been reported for CC(C)N(CCC(C(N)=O)(c1ccccc1)c1ccccn1)C(C)C.O=P(O)(O)O (stereo not drawn) [DISOPYRAMIDE PHOSPHATE] ?
## Output Compound metabolized

## Input I am curious: what Bacterial Biotransformation value has been reported for Br.CN(C)CCCC1(c2ccc(F)cc2)OCc2cc(C#N)ccc21 (stereo not drawn) [CITALOPRAM HYDROBROMIDE] ?
## Output Compound metabolized

---

- measurement conditions: human gut metagenome, 24 h, 2 µM
assay metric: Bacterial Biotransformation

Solved entries:
molecule	Bacterial Biotransformation
Cc1ccnc2c1NC(=O)c1cccnc1N2C1CC1	Compound metabolized
CN(C)CCc1c[nH]c2ccc(Cn3cncn3)cc12.O=C(O)c1ccccc1 [RIZATRIPTAN BENZOATE]	Compound NOT metabolized
CCCC1O[C@@H]2C[C@H]3[C@@H]4CCC5=CC(=O)C=C[C@]5(C)[C@H]4[C@@H](O)C[C@]3(C)[C@]2(C(=O)CO)O1 (some centres undefined) [BUDESONIDE]	Compound metabolized
CCOc1ccc(NC(C)=O)cc1	Compound NOT metabolized

## Input I am curious: what Bacterial Biotransformation value has been reported for CCOC(=O)[C@H](CCc1ccccc1)N[C@H]1CCc2ccccc2N(CC(=O)O)C1=O ?
## Output Compound metabolized

## Input I am curious: what Bacterial Biotransformation value has been reported for CCN(CC)CCNC(=O)c1cc(Cl)c(N)cc1OC [METOCLOPRAMIDE] ?
## Output Compound NOT metabolized

## Input I am curious: what Bacterial Biotransformation value has been reported for COc1ccc2[nH]c([S+]([O-])Cc3ncc(C)c(OC)c3C)nc2c1 (centres undefined) ?
## Output Compound metabolized

---

- measurement conditions: human gut metagenome, 24 h, 2 µM
assay metric: Bacterial Biotransformation

Solved entries:
> print(dat)
                                   compound       experimental.result
1            O=C(NCc1ccccc1)OCCO [BURAMATE]  Compound NOT metabolized
2  CNCCC(Oc1ccc(C(F)(F)F)cc1)c1ccccc1 (centres undefined) [FLUOXETINE]  Compound NOT metabolized
3  CCN(CC)CCNC(C(=O)OCCC(C)C)c1ccccc1.Cl.Cl (centres undefined)      Compound metabolized
4  CC(Oc1c(Cl)cccc1Cl)C1=NCCN1 (centres undefined) [LOFEXIDINE]  Compound NOT metabolized

For the next question, use this compound.
## Input I am curious: what Bacterial Biotransformation value has been reported for COc1ccc2c(c1OC)C(=O)O[C@@H]2[C@H]1c2c(cc3c(c2OC)OCO3)CCN1C [NOSCAPINE] ?
## Output Compound NOT metabolized
